B1: NLV3 TCR beta chain (CDR3β only) (parent)
chain: ASSPTGGSPSPLH
partner: MLVPMVATV

# Variants of: B1
# Procedure details: T-Switch: Jurkat TCRβ−/− cells expressing a CDR3 saturation-mutagenesis library, stained with two peptide-HLA-A*02:01 tetramers (original and novel peptide) plus anti-CD3, FACS-sorted into four gates, gDNA sequenced
# Setup conditions: with HLA-A*02:01 with peptide … (NLV 3-1, the original bait), tetramers 1 µg/mL, 30 min on ice, DP and SW gates expanded about 10 days between rounds ('two to three rounds of selection' in the Methods), gate SP: higher = more of the variant in the gate that binds the original peptide and not the novel one = retained original binding. Fold enrichment of the CDR3 variant in one FACS gate of a two-tetra, unresolved parent, parent is a CDR3 fragment, scale: fold enrichment, numbering: sequential-on-construct, sequence …
Endpoint label: enrichment

[…] (CDR3 as printed); P4M derived by comparing it with the table's wild-type CDR3 ASSPTGGSPSPLH    4.15
[…] (CDR3 as printed); S8A derived by comparing it with the table's wild-type CDR3 ASSPTGGSPSPLH    11.2
[…] (CDR3 as printed); H13S derived by comparing it with the table's wild-type CDR3 ASSPTGGSPSPLH    7.33
[…] (CDR3 as printed); T5P derived by comparing it with the table's wild-type CDR3 ASSPTGGSPSPLH    0

Then there is this variant:
Task item: // query enrichment value for entry […] (CDR3 as printed); P11N derived by comparing it with the table's wild-type CDR3 ASSPTGGSPSPLH
Reply: 0

From: paper PMC13397619
